B1: HEEH_KT_rd6_3546 (parent)
chain: SEEDKEREHWERLNRDFELRVLDTTFIAHHAEEVIKLLRWLEK

Variants of: B1
assay protocol: folding stability dG (cDNA display proteolysis); higher = more stable
test settings: PBS, room temperature
measure: folding stability dG (kcal/mol)

>>> reported_result("SEEDKEREHWERLNRDFVLRVLDTTFIAHHAEEVIKLLRWLEK [E18V]")
2.17
>>> reported_result("SEEDKEREHWERLNRDFELRVLDTTFIAHEAEEVIKLLRWLEK [H30E]")
0.893
>>> reported_result("SEEVKEREHWERLNRDFELRVLDTTFIAHHAEEVIKLLRWLEK [D4V]")
1.3
>>> reported_result("SEEDKEREHWERLNRDFELRVLDTTFIAHHAEEVIRLLRWLEK [K36R]")
1.51
>>> reported_result("SEEDDEREHWERLNRDFELRVLDTTFIAHHAEEVIKLLRWLEK [K5D]")
1.41
>>> reported_result("SEEDKEREHWERLNRDFELRVLDTTFINHHAEEVIKLLRWLEK [A28N]")
0.915
>>> reported_result("SEEDKEREHWERLNRDFELRVLDTTFIAHHAEEVIKLLGWLEK [R39G]")
0.742
>>> reported_result("SEEDKERDHWERLNRDFELRVLDTTFIAHHAEEVIKLLRWLEK [E8D]")
1.17
>>> reported_result("SKEDKEREHWERLNRDFELRVLDTTFIAHHAEEVIKLLRWLEK [E2K]")
1.45
>>> reported_result("SEEDKEREHWERLNRDFELRVLDTTDIAHHAEEVIKLLRWLEK [F26D]")
0.665
>>> reported_result("SEEDKEREHWERLNRDFELRVLDTTFDAHHAEEVIKLLRWLEK [I27D]")
0.608

These entries and their values trace back to the MegaScale stability set (Tsuboyama et al. 2023).
